Each record here notes measured composite z-score.
Assay: small-molecule microarray binders of probe aCHRDL2, primary screen, biochemical, biotinylated probe, 635/667 nm fluorescence (AID 1100)
Conditions: higher = more signal
Give the figure by itself; no unit, no explanation.

Reference set, count: 3
INSERT INTO assay_data (compound, experimentalendpoint, observedresult) VALUES
  ('[N-]=[N+]=NCc1ccccc1[C@@H]1OC(c2ccc(OCCCO)cc2)=N[C@]1(Cc1ccccc1N=[N+]=[N-])C(=O)NCCN1CCOCC1', 'composite z-score', 0.851),
  ('CN1C(=O)C2C(C1=O)C1C=C(CCCO)C2C(c2cccs2)N1Cc1cc2c(cc1Br)OCO2 (stereo not given)', 'composite z-score', 0.377),
  ('CCOC(=O)C[C@H]1[C@H](OC(=O)c2ccccc2-c2ccccc2)[C@@H](NC(=O)c2ccc3ccccc3n2)c2cc(OCCCO)ccc2N1C(=O)c1ccccc1', 'composite z-score', -0.46);

Sample COc1ccc([Si](C)(C)[C@@H]2[C@@H](CCn3cc([C@H](O)c4ccccc4)nn3)O[C@]3(C(=O)N(Cc4cccc(N5C(=O)c6cccc7cccc5c67)c4)c4ccccc43)[C@H]2C)cc1 ; composite z-score observed: 0.575

response.value for CN(C)CCCCNC(=O)[C@H]1C[C@H]2C(=O)N[C@@H](CCCC[N+](C)(C)C)C(=O)N2[C@H]1c1ccc(O)cc1 (field: composite z-score) = -0.328

Per the record, CS(=O)(=O)CCOC(=O)C1=CC(CCCO)=CC(C2CC2)N(Cc2cccc(OC(F)(F)F)c2)C=C1C(=O)OCCS(C)(=O)=O (stereo not given) has composite z-score of -0.0768

response.value for COc1cc(NN2C(C(O)c3ccccc3)C=CC3C(=O)N(C)C(=O)C32)cc(OC)c1OC (stereo not given) (field: composite z-score) = 0.8

# composite z-score (compound: CCCCNC(=O)c1ccc(C#C[Si](C(C)C)(C(C)C)C(C)C)c(OC(C)=O)c1 ) is -0.539

Record O=C1OCCC=C[C@H]2OC34C=CCN(c5ccc(Cl)cc5)C(=O)[C@H]3N(CCCCCCO)C(=O)[C@@H]4C12 (stereo not given in full) . Reported composite z-score: 0.499

The measured composite z-score associated with CCOC(=O)C1=CCC(c2ccccc2)N(S(=O)(=O)c2ccc([N+](=O)[O-])cc2)C1 (stereo not given) reads 0.507

Looking up CC(=O)n1cc(C(O)C2C=CC3C(=O)N(c4ccccc4)C(=O)C3N2Nc2ccc(C(C)C)cc2)c2ccccc21 (stereo not given) , I found its composite z-score recorded as 0.883

# composite z-score of COc1ccc([Si](C)(C)[C@H]2[C@H](CC(=O)N3CCC[C@H]3CO)O[C@@]3(C(=O)N(Cc4ccc(N5CCC5=O)cc4)c4ccccc43)[C@@H]2C)cc1 = -0.567

The recorded composite z-score for entry COCCOC(=O)N1C(=O)[C@@]2(c3ccccc31)[C@H](c1ccc(OCCO)cc1)N1[C@H](c3ccccc3)[C@H](c3ccccc3)OC(=O)[C@H]1[C@@H]2C(=O)N1CCCCCCC1 equals 1.9

The compound identified as Cc1cccc([C@H]2C[C@H]3C(Br)=C[C@@H]2C(=O)[C@]32CO2)c1 registered its composite z-score at -0.0607

Please fill in: composite z-score reported for COc1ccc(C(O)C2C=CC3C(=O)N(c4ccccc4)C(=O)C3N2Nc2ccc(C(C)C)cc2)c2ccccc12 (stereo not given) = 0.942

----------
Target: Pro-neuregulin-1, membrane-bound isoform (Homo sapiens) (UniProt Q02297)
Sequence (Q02297 whole entry, looked up, canonical isoform): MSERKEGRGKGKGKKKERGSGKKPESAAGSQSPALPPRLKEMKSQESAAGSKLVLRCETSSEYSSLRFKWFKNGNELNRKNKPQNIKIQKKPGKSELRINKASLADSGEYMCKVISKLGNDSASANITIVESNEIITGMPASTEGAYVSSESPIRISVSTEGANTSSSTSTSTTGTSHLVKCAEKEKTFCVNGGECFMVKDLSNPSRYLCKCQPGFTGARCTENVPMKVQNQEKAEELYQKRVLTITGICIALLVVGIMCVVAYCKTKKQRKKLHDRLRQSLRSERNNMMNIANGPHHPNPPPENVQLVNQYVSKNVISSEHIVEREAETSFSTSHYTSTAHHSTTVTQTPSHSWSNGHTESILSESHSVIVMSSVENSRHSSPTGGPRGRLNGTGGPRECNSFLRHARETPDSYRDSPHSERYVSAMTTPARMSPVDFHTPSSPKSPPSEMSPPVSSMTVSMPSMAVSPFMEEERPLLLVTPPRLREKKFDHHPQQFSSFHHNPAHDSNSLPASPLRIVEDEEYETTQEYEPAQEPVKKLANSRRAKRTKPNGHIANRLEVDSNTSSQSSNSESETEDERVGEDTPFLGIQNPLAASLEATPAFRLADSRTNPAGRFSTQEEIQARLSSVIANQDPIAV
Assay: NRG1 binders on small-molecule microarrays, primary screen, psychiatric disease protein project, biochemical, small-molecule microarray, fluorescence 635/667 (AID 1075);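 further: score combines 667 nm spot fluorescence with signal to noise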
Details: NRG1 binding, 635 nm fluorescence, higher = more signal
molecules and their reported composite z-score
Simply state the number, no unit and no words.

Would you please look over these solved cases?
INSERT INTO results (molecule, observedresult) VALUES
  ('CC(C)C(=C=CC[C@H](O)c1cccc(OCCO)c1)CCO', -0.356),
  ('C=CCC(OC(C)=O)[C@@H]1[C@@H](N(Cc2cc3ccccc3o2)C(=O)c2ccc(-c3ccccc3)cc2)c2cc(OCCCO)ccc2N1C(=O)Cc1ccc(OC)cc1 (some centres not stated)', 0.0526),
  ('CC1CC/C=C\[C@H]2OC34C=CCN(C(C)(C)C)C(=O)[C@H]3N(C(CO)C(C)C)C(=O)[C@@H]4C2C(=O)O1 (some centres not stated)', 0.867),
  ('Cc1c(NC(=O)/C(C#N)=C/c2ccccc2Cl)c(=O)n(-c2ccccc2)n1C', 0.888),
  ('CC(=O)NCCCC[C@@H]1NC(=O)[C@H]2C[C@@H](C(=O)NCCCCCNC(=O)CS)[C@@H](c3cccc(OCCO)c3)N2C1=O', -0.352),
  ('C[C@]1(C(=O)NCCN2CCOCC2)c2ccccc2C(=O)N(Cc2cc(F)cc(C(F)(F)F)c2)[C@H]1c1ccc(CO)cc1', 1.06);

// below: composite z-score requested for another molecule
Entry COc1ccc([Si](C)(C)[C@@H]2[C@@H](CC(=O)N3Cc4ccccc4C[C@H]3CO)O[C@]3(C(=O)N(Cc4ccc(N5CCC5=O)cc4)c4ccccc43)[C@H]2C)cc1 — recorded composite z-score = 0.636

----------
Overview of recorded z-score for various compounds
Experiment: splicing luciferase reporter signal modulators, primary screen, spliceosome inhibition project, cell-based, HEK293, splice +/- reporter (AID 1101);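 further: HEK293 cells carrying a splicing-competent luciferase reporter gene; test concentration not given here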
Details: luminescence, 24 h, higher = more signal, called active from +8 up or from −8 down
Hey, just send me the number, nothing else.

The measured z-score associated with CC(=O)n1cc(C(O)C2C=CC3C(=O)N(c4ccccc4)C(=O)C3N2Nc2ccc(C(C)C)cc2)c2ccccc21 (stereo not given) reads 0.811

get_value(item= CCOC(=O)C[C@H]1[C@H](OC(=O)c2ccc(-c3ccccc3)cc2)[C@@H](NC(=O)CC(C)C)c2cc(OCCCO)ccc2N1C(=O)c1ccccc1 , readout=z-score) returns -0.493

Given item O=C(CS)NCCCCCCNC(=O)[C@@H]1C[C@@H]2C(=O)NCC(=O)N2[C@@H]1c1ccc(O)cc1 , the value recorded as its z-score is -1.65

----------
Assay: small-molecule microarray binders of probe aEGFR, primary screen, biochemical, biotinylated probe, 635/667 nm fluorescence (AID 1097);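 further: probe is a biotinylated anti-EGFR antibody binding compounds printed on slides; score combines fluorescence near 667 nm and signal to noise of each spot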
Details: higher = more signal
experimentalEndpoint: composite z-score
Answer using only a numeral; do not append any unit.

Before answering, review these 6 worked examples.
INSERT INTO assay_data (compound, observedresult) VALUES
  ('COCC1C2CC[C@H]3C(OCc4ccc(OC)cc4)OC[C@]4(C)[C@H]3C2=C(CN4C(=O)OC(C)(C)C)[C@H](C)C1COC (some centres undefined)', -0.0656),
  ('Cc1cccc([C@H]2C[C@H]3C(I)=C[C@@H]2C(=O)[C@]32CO2)c1', -0.108),
  ('O=C(NCC(O)CO)[C@@]1(CCS(=O)(=O)c2ccccc2)COC(c2ccc(OCCCO)cc2)=N1 (some centres undefined)', 0.473),
  ('CCCCCN1CC=CC23O[C@@H]4C=CCOC(=O)[C@@H]4[C@H]2C(=O)N(CCO)[C@@H]3C1=O (some centres undefined)', -0.235),
  ('CCOC(=O)C1=CCN(S(=O)(=O)c2ccc(C)cc2)C1c1ccccc1 (centres undefined)', 0.227),
  ('Cc1ccc(F)cc1S(=O)(=O)N[C@@H]1CCN(Cc2cccc3[nH]ccc23)C1', 0.137);

composite z-score recorded for this compound, C=C(/C(=C/C[C@@H](OC(C)=O)c1ccc(CO)o1)c1cc(C(=O)OC)ccc1OC)C(C)C , is 0.358

Sure, the documented composite z-score for CCOC(=O)C1=CCC(c2ccccc2)N(S(=O)(=O)c2ccc([N+](=O)[O-])cc2)C1 (centres undefined) is 0.0506

// recorded composite z-score for C=C[C@@H](C)[C@@H](OC(=O)Nc1ccc(SC)cc1)c1ccc(OCCO)cc1 : 0.0348

----------
Biological target: Epidermal growth factor receptor (Homo sapiens) (UniProt P00533)
Sequence (P00533 whole entry, looked up): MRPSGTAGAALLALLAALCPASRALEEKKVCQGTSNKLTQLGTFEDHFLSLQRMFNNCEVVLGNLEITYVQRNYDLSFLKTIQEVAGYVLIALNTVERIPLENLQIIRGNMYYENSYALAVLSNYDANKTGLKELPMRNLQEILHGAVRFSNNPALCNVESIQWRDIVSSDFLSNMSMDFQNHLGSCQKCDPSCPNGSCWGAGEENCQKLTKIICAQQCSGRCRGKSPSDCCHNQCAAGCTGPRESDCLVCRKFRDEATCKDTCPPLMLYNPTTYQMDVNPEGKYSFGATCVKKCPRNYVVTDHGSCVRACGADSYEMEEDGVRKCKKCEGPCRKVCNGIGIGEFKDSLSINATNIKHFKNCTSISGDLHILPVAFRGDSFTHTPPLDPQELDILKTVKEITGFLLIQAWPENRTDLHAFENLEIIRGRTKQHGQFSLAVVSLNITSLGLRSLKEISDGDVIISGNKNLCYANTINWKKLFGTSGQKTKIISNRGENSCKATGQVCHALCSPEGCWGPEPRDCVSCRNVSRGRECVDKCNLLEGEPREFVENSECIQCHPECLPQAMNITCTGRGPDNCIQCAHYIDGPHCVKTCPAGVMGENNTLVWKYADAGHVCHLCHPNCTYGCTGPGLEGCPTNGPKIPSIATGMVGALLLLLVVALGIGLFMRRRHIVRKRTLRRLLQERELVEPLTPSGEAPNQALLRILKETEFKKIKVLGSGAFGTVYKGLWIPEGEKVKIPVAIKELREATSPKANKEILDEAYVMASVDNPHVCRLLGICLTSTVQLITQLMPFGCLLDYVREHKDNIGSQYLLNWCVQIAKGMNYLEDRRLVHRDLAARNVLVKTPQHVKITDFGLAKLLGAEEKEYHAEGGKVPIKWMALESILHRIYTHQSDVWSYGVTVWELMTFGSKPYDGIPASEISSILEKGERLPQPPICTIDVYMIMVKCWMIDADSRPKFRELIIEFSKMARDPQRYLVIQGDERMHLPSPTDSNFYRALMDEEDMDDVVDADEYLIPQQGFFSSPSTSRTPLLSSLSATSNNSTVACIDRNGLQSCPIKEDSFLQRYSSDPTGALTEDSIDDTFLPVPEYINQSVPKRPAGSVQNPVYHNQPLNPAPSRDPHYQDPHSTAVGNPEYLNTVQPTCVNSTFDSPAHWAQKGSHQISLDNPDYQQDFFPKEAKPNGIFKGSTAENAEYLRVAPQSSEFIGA
Test: EGFR binders on small-molecule microarrays, primary screen, biochemical, small-molecule microarray, 635 nm fluorescence (AID 1104);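 further: score merges 667 nm emission intensity with spot signal to noise over triplicate slides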
Conditions: EGFR binding, higher = more signal
Entry flag: TRUE if composite z-score reaches 0.02; FALSE if it does not.

Sample answers from the record:
INSERT INTO assay_data (compound, group) VALUES
  ('O=C1C2C=CC(C(O)c3ccc(I)cc3)N(Nc3ccccc3)C2C(=O)N1c1ccccc1 (stereo not given)', 'TRUE'),
  ('C=CCNC(=O)[C@@H]1[C@H]2C(=O)O[C@H](c3ccccc3)[C@H](c3ccccc3)N2[C@H](c2ccc(O)cc2)[C@@]12C(=O)Nc1ccc(C#CCC(C(=O)OC)C(=O)OC)cc12', 'FALSE'),
  ('C=C(COC)C(=O)CC[C@H](OC(=O)c1cccnc1)c1ccc(CO)o1', 'TRUE'),
  ('Cc1ccc(S[C@]2(C(=O)NCc3ccccc3)CC(=O)N(Cc3cc(C(F)(F)F)cc(C(F)(F)F)c3)[C@@H]2c2ccc(CO)cc2I)cc1', 'FALSE'),
  ('CCOC(=O)C=Cc1ccccc1O', 'TRUE'),
  ('COc1ccc([Si](C)(C)[C@H]2[C@H](CCO)O[C@@]3(C(=O)N(Cc4ccccc4)c4ccc(N5C(=O)c6ccccc6Oc6ccccc65)cc43)[C@@H]2C)cc1', 'FALSE'),
  ('COCCOC(=O)N1C(=O)[C@@]2(c3cc(C#CCCO)ccc31)[C@H](C(=O)N1CCCCCCC1)[C@H]1C(=O)O[C@H](c3ccccc3)[C@H](c3ccccc3)N1[C@@H]2c1ccccc1OCCO', 'TRUE'),
  ('CCCC=C(CCC)[C@@H](NS(=O)(=O)c1cccc2cccnc12)c1ccc(-c2ccccc2)cc1', 'TRUE');

Could you tell me if the measured composite z-score of O=C(NCC(O)CO)[C@@]1(CCS(=O)(=O)c2ccccc2)COC(c2ccc(OCCCO)cc2)=N1 (stereo not given in full) reaches 0.02 or more? FALSE

Is the recorded value of composite z-score equal to or greater than 0.02 for this compound? CN1C(=O)[C@@H]2[C@@H](CC(COc3ccccc3)=C([C@H](O)CCc3ccccc3)[C@@H]2CO)C1=O TRUE
